- System: HeLa Kyoto;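 note: synchronized HeLa Kyoto cells, proteins quantified by TMT10plex mass spectrometry, three biological replicates, mitosis taken 0.5 h after nocodazole release, G1/S directly after double thymidine block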
- experiment summary: thermal stability score vs G1/S (z-score of summed log2 fold changes over temperatures); higher = more thermally stable than in G1/S
- study conditions: cell cycle stage: early G1 (4.5 h after nocodazole release)
Below, each entry is listed with its recorded thermal stability score.
Write no unit; give the number alone.

The examples below pair each entry with its known result.
{"columns": ["biopolymer sequence", "thermal stability score"],
 "data": [
  ["MIRNGRGAAGGAEQPGPGGRRAVRVWCDGCYDMVHYGHSNQLRQARAMGDYLIVGVHTDEEIAKHKGPPVFTQEERYKMVQAIKWVDEVVPAAPYVTTLETLDKYNCDFCVHGNDITLTVDGRDTYEEVKQAGRYRECKRTQGVSTTDLVGRMLLVTKAHHSSQEMSSEYREYADSFGKCPGGRNPWTGVSQFLQTSQKIIQFASGKEPQPGETVIYVAGAFDLFHIGHVDFLEKVHRLAERPYIIAGLHFDQEVNHYKGKNYPIMNLHERTLSVLACRYVSEVVIGAPYAVTAELLSHFKVDLVCHGKTEIIPDRDGSDPYQEPKRRGIFRQIDSGSNLTTDLIVQRIITNRLEYEARNQKKEAKELAFLEAARQQAAQPLGERDGDF [PCYT2]", 0.197],
  ["MKHINLSFAACGFLGIYHLGAASALCRHGKKLVKDVKAFAGASAGSLVASVLLTAPEKIEECNQFTYKFAEEIRRQSFGAVTPGYDFMARLRSGMESILPPSAHELAQNRLHVSITNAKTRENHLVSTFSSREDLIKVLLASSFVPIYAGLKLVEYKGQKWVDGGLTNALPILPVGRTVTISPFSGRLDISPQDKGQLDLYVNIAKQDIMLSLANLVRLNQALFPPSKRKMESLYQCGFDDTVKFLLKENWFE [PNPLA4]", 0.304],
  ["MAPNIYLVRQRISRLGQRMSGFQINLNPLKEPLGFIKVLEWIASIFAFATCGGFKGQTEIQVNCPPAVTENKTVTATFGYPFRLNEASFQPPPGVNICDVNWKDYVLIGDYSSSAQFYVTFAVFVFLYCIAALLLYVGYTSLYLDSRKLPMIDFVVTLVATFLWLVSTSAWAKALTDIKIATGHNIIDELPPCKKKAVLCYFGSVTSMGSLNVSVIFGFLNMILWGGNAWFVYKETSLHSPSNTSAPHSQGGIPPPTGI [SYPL1]", -3.54],
  ["MAPKFPDSVEELRAAGNESFRNGQYAEASALYGRALRVLQAQGSSDPEEESVLYSNRAACHLKDGNCRDCIKDCTSALALVPFSIKPLLRRASAYEALEKYPMAYVDYKTVLQIDDNVTSAVEGINRMTRALMDSLGPEWRLKLPSIPLVPVSAQKRWNSLPSENHKEMAKSKSKETTATKNRVPSAGDVEKARVLKEEGNELVKKGNHKKAIEKYSESLLCSNLESATYSNRALCYLVLKQYTEAVKDCTEALKLDGKNVKAFYRRAQAHKALKDYKSSFADISNLLQIEPRNGPAQKLRQEVKQNLH [TOMM34]", 0.535]
]}

Inquiry: # input sequence: MSEDLAKQLASYKAQLQQVEAALSGNGENEDLLKLKKDLQEVIELTKDLLSTQPSETLASSDSFASTQPTHSWKVGDKCMAVWSEDGQCYEAEIEEIDEENGTAAITFAGYGNAEVTPLLNLKPVEEGRKAKEDSGNKPMSKKEMIAQQREYKKKKALKKAQRIKELEQEREDQKVKWQQFNNRAYSKNKKGQVKRSIFASPESVTGKVGVGTCGIADKPMTQYQDTSKYNVRHLMPQ [SMNDC1] ; wanted: its thermal stability score
Reply text: -2.66
